test system: C. jejuni; experiment: microbe, parasite or virus in culture
Ends that are not written are not given here.
assay-endpoint: MIC

SIKILKIYFIQGKRHWSF-NH2 (C-terminus assumed) [P11] ... >128 µg/mL
TMSLRFWRWKVR-NH2 [P5] ... 128 µg/mL
QVRWWGRYWRRKWATCR-NH2 [P12] ... >128 µg/mL

get_value(item= GTAWRWHYRARS-NH2 [P15a] , readout=MIC) returns 128 µg/mL

Lab note: measured MIC of RSITRPVLVRRRWRVRPVF-NH2 [P10] was >128 µg/mL

Please fill in: MIC reported for AWRWKAFRNCWRVRSSSL-NH2 [P8] = >128 µg/mL

In plain terms, KFVRLKIYCRDKNKGRGISF-NH2 [P15s] has a documented MIC of 128 µg/mL

VLHTGYRKFLHRSKRFFHLR-NH2 [P4] yielded MIC of >128 µg/mL

----------
test system: E. coli K12; test: SPOT peptide library screen (resazurin fluorescence); assay type: cell-based, Escherichia coli; design: unit not given here; settings: 75% reduction of fluorescence vs untreated controls; active IC75≤0.25, semi-active 0.25<IC75≤0.50, inactive IC75>0.5
Ends that are not written are not given here.
assay-endpoint: IC75 values indicating activity classes, E. coli

Sample records with IC75 values indicating activity classes, E. coli:
LPRRNRWSKIWKKVVTVFS-NH2 [Lynronne-1] ... 0.06
NRFTARFRRTPWRLCLQFRQ-NH2 [Lynronne-3] ... 0.16

With E. coli K12 as the test system, HLRRINKLLTRIGLYRHAFG-NH2 [Lynronne-2] showed IC75 values indicating activity classes, E. coli of 0.09

// assay E. coli K12, entry TTAPCKCWIGLRRCFK [P18] , IC75 values indicating activity classes, E. coli value = 0.36

----------
assay: in vitro; settings: 25% serum
Ends that are not written are not given here.
assay-endpoint: remaining at 2 h

LPRRNRWSKIWKKVVTVFS-NH2 [Lynronne-1] ... 48%
HLRRINKLLTRIGLYRHAFG-NH2 [Lynronne-2] ... ≥ 60%

# context switch: different substance, same remaining at 2 h
According to the records, this substance NRFTARFRRTPWRLCLQFRQ-NH2 [Lynronne-3] displays remaining at 2 h of ≥ 88%

----------
assay: in vitro; details: 25% serum
Ends that are not written are not given here.
assay-endpoint: remaining at 6 h (%)
Report as a plain number; the unit % is understood.

LPRRNRWSKIWKKVVTVFS-NH2 [Lynronne-1] ... 15
NRFTARFRRTPWRLCLQFRQ-NH2 [Lynronne-3] ... 34

Now examine the next entry.
// remaining at 6 h value for HLRRINKLLTRIGLYRHAFG-NH2 [Lynronne-2] : 42

----------
In this section we review reported IC75 values indicating activity classes, Sal. typhimurium values for a set of substances.
tested on: Sal. typhimurium; experiment: SPOT peptide library screen (resazurin fluorescence); format: cell-based, Salmonella enterica serovar Typhimurium; parameters: unit not given here; details: 75% reduction of fluorescence vs untreated controls; active IC75≤0.25, semi-active 0.25<IC75≤0.50, inactive IC75>0.5
Ends that are not written are not given here.

Some substances with known IC75 values indicating activity classes, Sal. typhimurium results, for comparison:
LPRRNRWSKIWKKVVTVFS-NH2 [Lynronne-1] ... 0.24
TTAPCKCWIGLRRCFK [P18] ... 1.99

The measured IC75 values indicating activity classes, Sal. typhimurium associated with HLRRINKLLTRIGLYRHAFG-NH2 [Lynronne-2] reads 0.09

IC75 values indicating activity classes, Sal. typhimurium in this record for NRFTARFRRTPWRLCLQFRQ-NH2 [Lynronne-3] : 0.41

----------
system: List. monocytogenes NCTC 11994; assay: microbe, parasite or virus in culture; conditions: NCTC 11994
Ends that are not written are not given here.
assay-endpoint: MIC (µg/mL)
# unit: µg/mL | format: bare number

HLRRINKLLTRIGLYRHAFG-NH2 [Lynronne-2] ... 32
AWRWKAFRNCWRVRSSSL-NH2 [P8] ... 64
LPRRNRWSKIWKKVVTVFS-NH2 [Lynronne-1] ... 32
VLHTGYRKFLHRSKRFFHLR-NH2 [P4] ... 64
KFVRLKIYCRDKNKGRGISF-NH2 [P15s] ... 128
SIKILKIYFIQGKRHWSF-NH2 (C-terminus assumed) [P11] ... 256
NRFTARFRRTPWRLCLQFRQ-NH2 [Lynronne-3] ... 32
RSITRPVLVRRRWRVRPVF-NH2 [P10] ... 512
TMSLRFWRWKVR-NH2 [P5] ... 64

# next substance below
Per the records, this substance ( QVRWWGRYWRRKWATCR-NH2 [P12] ) has MIC equal to 128

Where do these numbers come from? They come from paper PMC5711939.
